Target Or System: α4β1 integrin (Homo sapiens (Human), UniProt P05556+P13612)
Sequence (P13612 34-1032): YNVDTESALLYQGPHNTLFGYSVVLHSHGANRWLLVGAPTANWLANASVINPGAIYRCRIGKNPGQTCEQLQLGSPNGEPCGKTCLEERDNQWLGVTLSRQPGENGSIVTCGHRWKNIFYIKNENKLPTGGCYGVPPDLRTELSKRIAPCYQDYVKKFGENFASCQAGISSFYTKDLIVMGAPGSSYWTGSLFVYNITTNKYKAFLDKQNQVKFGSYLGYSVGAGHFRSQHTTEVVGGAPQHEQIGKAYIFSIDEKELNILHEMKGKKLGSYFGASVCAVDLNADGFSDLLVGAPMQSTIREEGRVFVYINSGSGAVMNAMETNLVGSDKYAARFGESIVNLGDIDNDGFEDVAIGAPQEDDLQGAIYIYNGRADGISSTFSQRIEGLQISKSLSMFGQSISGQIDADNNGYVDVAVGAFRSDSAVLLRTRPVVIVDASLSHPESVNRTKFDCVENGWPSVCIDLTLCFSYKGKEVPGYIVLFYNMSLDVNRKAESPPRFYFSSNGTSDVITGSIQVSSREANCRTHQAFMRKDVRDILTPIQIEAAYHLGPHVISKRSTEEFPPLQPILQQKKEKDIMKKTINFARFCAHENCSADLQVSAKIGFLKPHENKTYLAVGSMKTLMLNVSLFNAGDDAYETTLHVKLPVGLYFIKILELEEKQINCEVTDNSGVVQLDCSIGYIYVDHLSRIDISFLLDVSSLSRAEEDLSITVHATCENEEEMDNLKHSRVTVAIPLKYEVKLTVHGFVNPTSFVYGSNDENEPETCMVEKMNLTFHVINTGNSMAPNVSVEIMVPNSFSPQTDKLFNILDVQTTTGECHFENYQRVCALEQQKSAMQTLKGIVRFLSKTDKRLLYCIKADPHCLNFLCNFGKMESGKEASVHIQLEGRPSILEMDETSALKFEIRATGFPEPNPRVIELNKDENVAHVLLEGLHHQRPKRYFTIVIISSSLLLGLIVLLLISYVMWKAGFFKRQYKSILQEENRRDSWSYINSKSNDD
Sequence (P05556 21-798): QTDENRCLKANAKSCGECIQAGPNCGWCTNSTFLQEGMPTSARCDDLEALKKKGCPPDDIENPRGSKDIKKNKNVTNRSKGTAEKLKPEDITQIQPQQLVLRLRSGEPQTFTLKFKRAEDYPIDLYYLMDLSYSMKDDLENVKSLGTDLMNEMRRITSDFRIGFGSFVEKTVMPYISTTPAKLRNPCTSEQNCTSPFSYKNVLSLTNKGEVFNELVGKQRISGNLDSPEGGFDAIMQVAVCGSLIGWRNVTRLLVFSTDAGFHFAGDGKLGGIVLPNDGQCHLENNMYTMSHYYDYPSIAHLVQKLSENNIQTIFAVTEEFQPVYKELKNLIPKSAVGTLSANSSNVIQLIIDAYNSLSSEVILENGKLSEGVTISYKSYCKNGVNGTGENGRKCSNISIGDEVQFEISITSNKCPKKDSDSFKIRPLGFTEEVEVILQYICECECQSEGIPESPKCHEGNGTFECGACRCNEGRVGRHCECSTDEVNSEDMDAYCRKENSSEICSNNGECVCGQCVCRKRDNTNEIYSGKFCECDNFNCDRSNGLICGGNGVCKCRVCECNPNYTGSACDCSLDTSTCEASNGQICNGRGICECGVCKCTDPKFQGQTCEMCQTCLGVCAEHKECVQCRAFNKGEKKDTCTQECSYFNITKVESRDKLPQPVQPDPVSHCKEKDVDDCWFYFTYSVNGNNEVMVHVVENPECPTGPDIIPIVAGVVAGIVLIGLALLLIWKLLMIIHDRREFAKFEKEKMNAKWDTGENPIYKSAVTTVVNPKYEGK
Assay Overview: Integrin Adhesion Assay: Protocol 5 (VCAM-coated plate, RPMI-8866 cells with stable LOF mutation of the ITGB7 gene)
Assay type: cell-based
Details: Protocol 5; RPMI-8866 cells with LOF mutation of ITGB7, VCAM; read-out: Mean IC50 α4β1 KO
Endpoint: IC50

The cases that follow already have their IC50 on record.
Compound | IC50
COc1ccc(CN2CCC[C@H](F)C2)c(OC)c1-c1cccc2c(C[C@H](NC(=O)C3(C(F)(F)F)CCN(CC(F)(F)F)CC3)C(=O)O)cccc12 | 100 to 1000 nM
COc1ccc(CN2CCC(F)(F)CC2)c(OC)c1-c1cccc2c(C[C@H](NC(=O)C3(C(F)(F)F)CCN(CC(F)F)CC3)C(=O)O)cccc12 | 100 to 1000 nM
COc1ccc(CCN2CCC(F)(F)CC2)c(OC)c1-c1cccc2c(C[C@H](NC(=O)C3(C(F)(F)F)CCN(CC(F)(F)F)CC3)C(=O)O)cccc12 | 100 to 1000 nM
COc1ccc(CN2CCC(F)(F)CC2)c(C(F)(F)F)c1-c1cccc2c(C[C@H](NC(=O)c3c(C)cccc3F)C(=O)O)cccc12 | > 1000 nM
O=C(O)[C@H](Cc1cccc2c(-c3ncc(CN4CCCC(F)(F)CC4)c4ccccc34)cccc12)NC(=O)C1(C(F)(F)F)CCN(CC(F)F)CC1 | > 1000 nM
COc1ccc(CN2CCC[C@@H](F)C2)c(OC)c1-c1cccc2c(C[C@H](NC(=O)C3(C(F)(F)F)CCN(CC(F)(F)F)CC3)C(=O)O)cccc12 | > 1000 nM
O=C(O)[C@H](Cc1cccc2c(-c3ccc(CN4CCCCC4)cn3)cccc12)NC(=O)C1(C(F)(F)F)CCN(CC(F)(F)F)CC1 | > 1000 nM
COc1ccc2c(c1-c1cccc3c(C[C@H](NC(=O)C4(C(F)(F)F)CCN(CC(F)(F)F)CC4)C(=O)O)cccc13)CN(CC(F)(F)F)CC2 | > 1000 nM
O=C(O)[C@H](Cc1cccc2c(-c3ncc(CN4CCCC4)c4ccccc34)cccc12)NC(=O)C1(C(F)(F)F)CCN(CC(F)(F)F)CC1 | > 1000 nM
COc1cccc(CCCN2CCC(F)(F)CC2)c1-c1cccc2c(C[C@H](NC(=O)C3(C(F)(F)F)CCN(CC(F)(F)F)CC3)C(=O)O)cccc12 | > 1000 nM

q: Requested field: IC50. Item: COc1ccc(CN2CCCCC2)c(OC)c1-c1cccc2c(C[C@H](NC(=O)C3(C(F)(F)F)CCN(CC(F)(F)F)CC3)C(=O)O)cccc12
a: 100 to 1000 nM

q: Requested field: IC50. Item: COc1ccc(CN2CCCC(F)C2)c(C(F)(F)F)c1-c1cccc2c(C[C@H](NC(=O)C3(C(F)(F)F)CCN(CC(F)(F)F)CC3)C(=O)O)cccc12 (stereo partly drawn)
a: > 1000 nM

* * *

Measured IC50 by item
Target Or System: α4β1 integrin (Homo sapiens (Human), UniProt P05556+P13612)
Assay Overview: Integrin Adhesion Assay: Protocol 5 (VCAM-coated plate, RPMI-8866 cells with stable LOF mutation of the ITGB7 gene)
Assay type: cell-based
Details: Protocol 5; RPMI-8866 cells with LOF mutation of ITGB7, VCAM; read-out: Mean IC50 α4β1 KO

The cases that follow already have their IC50 on record.
Molecule | IC50
O=C(O)[C@H](Cc1cccc2c(-c3ncc(CN4CCCC5(CC5)C4)c4ccccc34)cccc12)NC(=O)C1(C(F)(F)F)CCN(CC(F)(F)F)CC1 | 100 to 1000 nM
COc1cccc(CCN2CCC[C@H](F)C2)c1-c1cccc2c(C[C@H](NC(=O)C3(C(F)(F)F)CCN(CC(F)(F)F)CC3)C(=O)O)cccc12 | > 1000 nM
O=C(O)[C@H](Cc1cccc2c(-c3ncc(C(=O)N4CCN(C5CC5)CC4)c4ccccc34)cccc12)NC(=O)C1(C(F)(F)F)CCN(CC(F)(F)F)CC1 | > 1000 nM
Cc1cc(CCN2CCCCC2)cnc1-c1cccc2c(C[C@H](NC(=O)C3(C(F)(F)F)CCN(CC(F)F)CC3)C(=O)O)cccc12 | > 1000 nM
O=C(O)[C@H](Cc1cccc2c(-c3nccc4ccc(CN5CCCCC5)cc34)cccc12)NC(=O)C1(C(F)(F)F)CCN(CC(F)(F)F)CC1 | > 1000 nM
O=C(O)[C@H](Cc1cccc2c(-c3ncc(CN4C5CCCC4CC5)c4ccccc34)cccc12)NC(=O)C1(C(F)(F)F)CCN(CC(F)(F)F)CC1 | > 1000 nM
CC[C@H]1CCCN1Cc1cnc(-c2cccc3c(C[C@H](NC(=O)C4(C(F)(F)F)CCN(CC(F)F)CC4)C(=O)O)cccc23)c2ccccc12 | 100 to 1000 nM
CN(C)Cc1ccc2c(c1)c(C(F)(F)F)c(-c1cccc3c(C[C@H](NC(=O)c4c(F)cccc4CN4CCC(F)(F)CC4)C(=O)O)cccc13)c(=O)n2C | > 1000 nM

q: Requested field: IC50. Item: COc1ccc(CN2CCOCC2)c(OC)c1-c1cccc2c(C[C@H](NC(=O)C3(C(F)(F)F)CCN(CC(F)(F)F)CC3)C(=O)O)cccc12
a: 100 to 1000 nM

q: Requested field: IC50. Item: COc1cc(CCN2CCCCC2)cnc1-c1cccc2c(C[C@H](NC(=O)C3(C(F)(F)F)CCN(CC(F)(F)F)CC3)C(=O)O)cccc12
a: > 1000 nM

q: Requested field: IC50. Item: O=C(O)[C@H](Cc1cccc2c(-c3ncc(CN4CCN(C5CC5)CC4)c4ccccc34)cccc12)NC(=O)C1(C(F)(F)F)CCN(CC(F)(F)F)CC1
a: > 1000 nM

q: Requested field: IC50. Item: COc1ccc(CN2CCC(F)CC2)c(C(F)(F)F)c1-c1cccc2c(C[C@H](NC(=O)C3(C(F)(F)F)CCN(CC(F)(F)F)CC3)C(=O)O)cccc12
a: > 1000 nM

q: Requested field: IC50. Item: COc1cccc(CCN2CCC(c3ccccc3)CC2)c1-c1cccc2c(C[C@H](NC(=O)C3(C(F)(F)F)CCN(CC(F)(F)F)CC3)C(=O)O)cccc12
a: > 1000 nM

q: Requested field: IC50. Item: COc1ccc(C2(N(C)C)CC2)c(OC)c1-c1cccc2c(C[C@H](NC(=O)c3c(C)cccc3F)C(=O)O)cccc12
a: 100 to 1000 nM

q: Requested field: IC50. Item: COc1cccc(CCN2CCC[C@@H](F)C2)c1-c1cccc2c(C[C@H](NC(=O)c3c(C)cccc3F)C(=O)O)cccc12
a: > 1000 nM

q: Requested field: IC50. Item: O=C(O)[C@H](Cc1cccc2c(-c3ncc(CN4CCC5(CC4)CC5)c4ccccc34)cccc12)NC(=O)C1(C(F)(F)F)CCN(C2COC2)CC1
a: 100 to 1000 nM

* * *

Measured pIC50 by item
Target Or System: α4β7 integrin (Homo sapiens (Human), UniProt P13612+P26010)
Sequence (P13612 34-1032): as the sequence (P13612 34-1032) above
Sequence (P26010 20-798): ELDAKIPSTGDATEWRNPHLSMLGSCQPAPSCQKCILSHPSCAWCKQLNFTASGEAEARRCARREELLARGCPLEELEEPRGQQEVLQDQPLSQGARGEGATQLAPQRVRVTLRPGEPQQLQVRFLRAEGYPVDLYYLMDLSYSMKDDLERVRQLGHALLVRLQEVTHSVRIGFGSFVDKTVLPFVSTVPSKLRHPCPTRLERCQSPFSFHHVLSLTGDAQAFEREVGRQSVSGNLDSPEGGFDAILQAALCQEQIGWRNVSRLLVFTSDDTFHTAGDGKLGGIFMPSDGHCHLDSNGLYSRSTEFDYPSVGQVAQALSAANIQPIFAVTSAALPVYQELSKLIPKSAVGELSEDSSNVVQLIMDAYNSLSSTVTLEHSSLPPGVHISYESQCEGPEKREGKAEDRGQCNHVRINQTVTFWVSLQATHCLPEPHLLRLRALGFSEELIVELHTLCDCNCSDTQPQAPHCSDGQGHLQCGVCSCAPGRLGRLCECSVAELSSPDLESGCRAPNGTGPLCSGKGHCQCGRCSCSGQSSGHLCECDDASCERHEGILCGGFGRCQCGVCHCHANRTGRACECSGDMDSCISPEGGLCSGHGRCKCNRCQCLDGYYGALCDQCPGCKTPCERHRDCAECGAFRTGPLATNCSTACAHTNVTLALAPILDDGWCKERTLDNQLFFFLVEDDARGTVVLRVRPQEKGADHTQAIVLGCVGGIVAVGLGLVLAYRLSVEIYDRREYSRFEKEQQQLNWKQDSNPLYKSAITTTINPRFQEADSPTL
Assay Overview: Integrin Adhesion Assay: Protocol 4 (MAdCAM-coated plate, RPMI-8866 cells with stable LOF mutation of the ITGB1 gene)
Type: cell-based
Details: RPMI-8866 cells with stable LOF mutation of the ITGB1 gene; read-out: Mean IC50 α4β7 KO^a
Description: Integrin Adhesion Assay Using Genetically Modified Cells Generating Stable Cell Lines with ITGB1 or ITGB7 Knockout (Protocol 4 and Protocol 5) […] To generate an individual clones of cells deficient in either ITGB7 or ITGB1 by limiting dilution assay, the transfected cells were resuspended at 5 cells/mL and seeded in 384 well plates. Outgrowth of clones was monitored using a microscope, and 24 clones were transferred for expansion. […]
pIC50: −log10 of the molar value.

The cases that follow already have their pIC50 on record.
Compound | Target Or System | pIC50
COc1ccc(CN2CCC[C@@H](F)C2)c(OC)c1-c1cccc2c(C[C@H](NC(=O)c3c(C)cccc3F)C(=O)O)cccc12 [Compound 672] | α4β7 integrin (Homo sapiens (Human), UniProt P13612+P26010) | > 8.00
O=C(O)[C@H](Cc1cccc2c(-c3nccc4c(CN5CCC(F)(F)C5)cccc34)cccc12)NC(=O)C1(C(F)(F)F)CCN(CC(F)(F)F)CC1 [Compound 594] | α4β7 integrin (Homo sapiens (Human), UniProt P13612+P26010) | 7.00 to 8.00
Cn1c(=O)c(-c2cccc3c(C[C@H](NC(=O)[C@]4(C)CC[C@@H](N5CC(F)(F)C5)CC4)C(=O)O)cccc23)c(C(F)(F)F)c2ccccc21 [Compound 399] | α4β7 integrin (Homo sapiens (Human), UniProt P13612+P26010) | 7.00 to 8.00
Cn1c(=O)c(-c2cccc3c(C[C@H](NC(=O)C4(C(F)(F)F)CCN(CC(F)F)CC4)C(=O)O)cccc23)c(C(F)(F)F)c2ccccc21 (racemic) [Compound 480] | α4β7 integrin (Homo sapiens (Human), UniProt P13612+P26010) | > 8.00

q: Requested field: pIC50. Item: Cn1c(=O)c(-c2cccc3c(C[C@H](NC(=O)C45CC(NCC(F)(F)F)(C4)C5)C(=O)O)cccc23)c(C(F)(F)F)c2ccccc21 [Compound 446]
a: < 6.00

q: Requested field: pIC50. Item: COc1ccc(CN2CCC2)c(OC)c1-c1cccc2c(C[C@H](NC(=O)c3c(C)cccc3F)C(=O)O)cccc12 [Compound 628]
a: > 8.00
